# experimental.protocol: Cytotoxicity against human THLE3 cells assessed as reduction in cell viability after 48 hrs by Alamar blue assay
# Assay type: cell-based
Provide the reported CC50 at 48 h of each item.
One number for each entry, in µM.

Some entries whose results are on file:
# structure.notation, CC50 at 48 h [µM]
measured = [
    ("COc1ccccc1S(=O)(=O)Nc1ccc2oc(-c3ccccc3)nc2c1", 29),
    ("O=S(=O)(Nc1ccc2oc(-c3ccccc3)nc2c1)c1ccc(Cl)cc1", 40),
    ("O=S(=O)(Nc1ccc2oc(-c3ccccc3)nc2c1)c1ccc(F)cc1", 38),
    ("O=S(=O)(Nc1ccc2oc(-c3ccccc3)nc2c1)c1cccc(F)c1", 41),
]

Parameters: items (list). Returns: CC50 at 48 h for each item.
1. CCc1ccc(S(=O)(=O)Nc2ccc(-c3nc4ccccc4o3)cc2)cc1
2. COc1ccc(S(=O)(=O)Nc2ccc3oc(-c4ccccc4)nc3c2)cc1
3. O=S(=O)(Nc1ccc2oc(-c3ccccc3)nc2c1)c1ccc(C(F)(F)F)cc1

stdout:
1. 77
2. 53
3. 49

###

Consider the following compounds; for each one, report its pIC50.
# subject.of.test: Tyrosine-protein phosphatase non-receptor type 2 (Homo sapiens, UniProt P17706)
# Sequence (P17706 whole entry): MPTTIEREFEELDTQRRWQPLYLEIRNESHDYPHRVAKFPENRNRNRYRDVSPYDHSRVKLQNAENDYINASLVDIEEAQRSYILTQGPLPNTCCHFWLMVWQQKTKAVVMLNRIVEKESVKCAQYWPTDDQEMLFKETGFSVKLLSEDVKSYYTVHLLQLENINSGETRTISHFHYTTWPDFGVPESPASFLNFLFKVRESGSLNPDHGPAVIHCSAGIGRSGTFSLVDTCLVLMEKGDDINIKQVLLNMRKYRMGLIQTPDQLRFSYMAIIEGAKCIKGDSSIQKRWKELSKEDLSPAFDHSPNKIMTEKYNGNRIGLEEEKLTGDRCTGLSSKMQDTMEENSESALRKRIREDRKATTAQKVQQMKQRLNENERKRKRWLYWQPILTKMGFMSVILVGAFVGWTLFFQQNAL
pIC50: −log10 of the molar value.

# structure.notation, subject.of.test, assay.metric, test.value
rows = [
    ("CS(=O)(=O)Nc1ccc2oc(-c3ccc(NS(=O)(=O)c4ccc(Cl)s4)cc3)nc2c1", "Tyrosine-protein phosphatase non-receptor type 2 (Homo sapiens, UniProt P17706)", "pIC50", "< 4.00"),
    ("O=S(=O)(Nc1ccc(-c2nc3cc(NS(=O)(=O)C(F)(F)F)ccc3o2)cc1)C(F)(F)F", "Tyrosine-protein phosphatase non-receptor type 2 (Homo sapiens, UniProt P17706)", "pIC50", "< 4.00"),
]

Continue with the compound presented below.
stdin: Fill in the recorded pIC50 for this compound, with Tyrosine-protein phosphatase non-receptor type 2 (Homo sapiens, UniProt P17706) as test system: O=S(=O)(Nc1ccc2oc(-c3ccccc3)nc2c1)c1ccc(O)cc1
stdout: < 4.00

###

Please respond with reported IC50 for every item in the list.
# subject.of.test: UniProtKB P17706
# Sequence (P17706 whole entry): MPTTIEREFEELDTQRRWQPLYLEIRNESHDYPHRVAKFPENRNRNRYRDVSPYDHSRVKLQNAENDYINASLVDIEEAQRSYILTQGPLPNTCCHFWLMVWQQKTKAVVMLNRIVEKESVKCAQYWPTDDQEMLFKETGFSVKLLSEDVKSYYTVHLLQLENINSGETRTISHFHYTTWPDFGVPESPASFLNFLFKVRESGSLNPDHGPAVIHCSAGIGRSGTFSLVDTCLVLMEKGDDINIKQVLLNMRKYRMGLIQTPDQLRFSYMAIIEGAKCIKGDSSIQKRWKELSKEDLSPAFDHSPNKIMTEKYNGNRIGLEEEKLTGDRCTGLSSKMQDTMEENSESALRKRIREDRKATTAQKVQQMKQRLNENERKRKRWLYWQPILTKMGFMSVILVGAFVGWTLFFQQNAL
Numbers only, in µM.

Examples from the recorded data:
# structure.notation, test.value
measured = [
    ("O=S(=O)(Nc1ccc(-c2nc3cc(NS(=O)(=O)c4cccc5ccccc45)ccc3o2)cc1)c1ccc(Cl)s1", 7.3),
    ("O=S(=O)(Nc1ccc(-c2nc3cc(NS(=O)(=O)c4ccc(Cl)s4)ccc3o2)cc1)c1cccc(C(F)(F)F)c1", 16),
    ("COC(=O)c1cccc(S(=O)(=O)Nc2ccc(-c3nc4cc(NS(=O)(=O)c5cccc(C(=O)OC)c5)ccc4o3)cc2)c1", 13),
    ("COc1ccc(S(=O)(=O)Nc2ccc3oc(-c4ccc(NS(=O)(=O)c5ccc(Cl)s5)cc4)nc3c2)cc1", 24),
]

I would be grateful if you could provide IC50 for each of the following entries.
1. O=c1ccc2cc(S(=O)(=O)Nc3ccc(-c4nc5cc(NS(=O)(=O)c6ccc7oc(=O)ccc7c6)ccc5o4)cc3)ccc2o1
2. O=S(=O)(Nc1ccc(-c2nc3ccccc3o2)cc1)c1ccccc1O
3. Cc1ccc(S(=O)(=O)Nc2ccc3oc(-c4ccccc4)nc3c2)cc1

stdout:
9.1
57
49

###

# subject.of.test: Phosphotyrosine protein phosphatase (Mycobacterium tuberculosis, UniProt A0A045ISB3)
# Sequence (A0A045ISB3 whole entry): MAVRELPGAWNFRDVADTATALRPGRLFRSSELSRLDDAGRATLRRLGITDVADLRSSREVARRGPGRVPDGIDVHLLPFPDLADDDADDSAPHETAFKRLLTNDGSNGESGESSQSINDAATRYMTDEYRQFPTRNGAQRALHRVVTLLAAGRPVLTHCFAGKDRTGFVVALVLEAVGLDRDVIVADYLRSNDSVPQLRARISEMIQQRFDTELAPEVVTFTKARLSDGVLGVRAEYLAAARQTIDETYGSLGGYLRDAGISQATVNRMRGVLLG
IC50 strictly under 40 µM means Condition met; at 40 µM or over means Condition not met.

Here's what some known entries look like.
# structure.notation, label
records = [
    ("COc1cccc(S(=O)(=O)Nc2ccc3oc(-c4ccccc4)nc3c2)c1", "Condition not met"),
    ("O=S(=O)(Nc1ccc(-c2nc3cc(NS(=O)(=O)c4cccc5ccccc45)ccc3o2)cc1)c1cccc2ccccc12", "Condition met"),
    ("O=[N+]([O-])c1cc(S(=O)(=O)Nc2ccc(-c3nc4ccccc4o3)cc2)ccc1Cl", "Condition met"),
    ("COc1ccc(S(=O)(=O)Nc2ccc3oc(-c4ccccc4)nc3c2)cc1", "Condition not met"),
    ("O=S(=O)(Nc1ccc(-c2nc3cc(NS(=O)(=O)c4ccccc4O)ccc3o2)cc1)c1ccccc1O", "Condition met"),
]

stdin: Lab note: IC50 threshold 40 µM. Does this compound come in strictly under it? O=S(=O)(Nc1ccc(-c2nc3ccccc3o2)cc1)c1ccccc1O
stdout: Condition met

stdin: Find out if reported IC50 for N#Cc1ccccc1S(=O)(=O)Nc1ccc(-c2nc3cc(NS(=O)(=O)c4ccccc4C#N)ccc3o2)cc1 is less than 40 µM
stdout: Condition met

stdin: Quick check: does O=S(=O)(Nc1ccc2oc(-c3ccccc3)nc2c1)c1ccc(Cl)c(Cl)c1 have IC50 under 40 µM?
stdout: Condition met

stdin: Consider the compound O=S(=O)(Nc1ccc2oc(-c3ccccc3)nc2c1)c1cccc(C(F)(F)F)c1 . Is its IC50 strictly less than 40 µM?
stdout: Condition not met

###

# subject.of.test: UniProt:P18031
# Sequence (P18031 whole entry): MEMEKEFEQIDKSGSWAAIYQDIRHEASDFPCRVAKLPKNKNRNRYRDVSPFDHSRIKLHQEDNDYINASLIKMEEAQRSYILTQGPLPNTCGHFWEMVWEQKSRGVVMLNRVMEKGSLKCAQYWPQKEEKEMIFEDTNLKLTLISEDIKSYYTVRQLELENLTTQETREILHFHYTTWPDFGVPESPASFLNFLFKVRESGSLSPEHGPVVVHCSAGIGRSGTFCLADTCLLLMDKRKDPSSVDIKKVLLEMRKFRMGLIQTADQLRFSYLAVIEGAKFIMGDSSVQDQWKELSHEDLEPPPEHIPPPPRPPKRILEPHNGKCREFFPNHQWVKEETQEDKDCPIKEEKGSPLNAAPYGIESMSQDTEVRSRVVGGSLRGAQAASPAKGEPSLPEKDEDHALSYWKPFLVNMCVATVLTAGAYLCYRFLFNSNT
assay.metric: IC50 (µM)
Numbers only, in µM.

Use these answered entries as a reference point.
# structure.notation, unit.name, IC50
measured = [
    ("Cc1cccc(S(=O)(=O)Nc2ccc3oc(-c4ccccc4)nc3c2)c1", "µM", 53),
    ("O=S(=O)(Nc1ccc2oc(-c3ccc(NS(=O)(=O)c4ccc(Cl)s4)cc3)nc2c1)c1ccc2ccccc2c1", "µM", 7.9),
    ("NCc1ccc(S(=O)(=O)Nc2ccc3oc(-c4ccc(NS(=O)(=O)c5ccc(Cl)s5)cc4)nc3c2)cc1", "µM", 42),
]

stdin: Can you share its IC50? I mean this compound: O=S(=O)(Nc1ccc(-c2nc3ccccc3o2)cc1)c1ccccc1Cl
stdout: 59
